Test system: SR
Test: NCI tumour cell line growth inhibition, 48 h
The source made the active and inactive calls. Rule as the data show it: active = GI50 up to about 1.1 µM and inactive = higher.
Mark one answer only. Choices: 1 (yes) for active, 0 (no) for inactive

Field: example entries. Status: answers known.
COc1cc(C(=O)NNC(=O)c2cc(Br)ccc2NC(=O)c2cccs2)cc(OC)c1OC: 0 (no)
CC(C)NCCCC(C)Nc1ccnc2ccc3nn(C)nc3c12 (stereo unspecified): 0 (no)
CCOC(=N)CC(=O)Nc1cccc(Cl)c1: 0 (no)
CCCCCCCC(=O)OCC1OC(n2cc(F)c(=O)[nH]c2=O)C(NC(=O)OCc2ccccc2)C(O)C1O (stereo unspecified): 0 (no)
O=C1C=CC(=O)N1c1ccc(I)cc1: 0 (no)
O=C1C(=O)N(C(=O)c2ccc(Cl)c(Cl)c2)c2ccc(Cl)cc21: 0 (no)
COc1nc(SC)nc2c1C(O)n1c(nc3ccccc31)S2 (stereo unspecified): 0 (no)
COc1cccc2nc3c(C(=O)NCCN(C)C)cccc3nc12: 0 (no)

Query block: Identify the outcome logged in this assay for the compound shown: COc1ccc2c(c1)c(=O)c1c(NCCCN(C)CCCNc3ccc4c(=O)n(CCN(C)C)c(=O)n5c6ccc(OC)cc6c(=O)c3c45)ccc3c(=O)n(CCN(C)C)c(=O)n2c31
Result block: 1 (yes)

Query block: Likewise for Cc1cc2nc(C=C(C(F)(F)F)C(F)(F)F)oc2cc1C ?
Result block: 0 (no)

Query block: Likewise for O=C(O)C(Cc1ccccc1-c1ccccc1)C(=O)O ?
Result block: 0 (no)
